Provenance of the data: patent US20100249145A1

target-or-test-system: VEGF receptor KDR (Homo sapiens, UniProt P35968)
Construct: made in house; host or cells: Sf9 cells (Spodoptera frugiperda), recombinant baculovirus
Sequence (P35968 806-1356): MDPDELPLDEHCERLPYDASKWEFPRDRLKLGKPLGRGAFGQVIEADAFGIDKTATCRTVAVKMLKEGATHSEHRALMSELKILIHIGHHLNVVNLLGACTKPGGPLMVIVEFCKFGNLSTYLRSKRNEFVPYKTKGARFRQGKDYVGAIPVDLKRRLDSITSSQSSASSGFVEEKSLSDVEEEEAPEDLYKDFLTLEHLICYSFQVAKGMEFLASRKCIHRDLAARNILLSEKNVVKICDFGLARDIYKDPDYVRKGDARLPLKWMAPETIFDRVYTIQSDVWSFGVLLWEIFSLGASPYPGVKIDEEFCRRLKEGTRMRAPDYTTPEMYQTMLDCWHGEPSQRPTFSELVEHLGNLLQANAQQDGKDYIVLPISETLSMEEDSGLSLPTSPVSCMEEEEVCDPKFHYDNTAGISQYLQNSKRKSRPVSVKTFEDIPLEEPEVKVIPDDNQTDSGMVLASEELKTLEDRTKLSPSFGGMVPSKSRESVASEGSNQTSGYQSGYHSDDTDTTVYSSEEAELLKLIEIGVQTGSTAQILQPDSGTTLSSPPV
assay-notes: In vitro receptor tyrosine kinase assay (DELFIA), VEGF receptor KDR
Format: biochemical
measurement-setup: Table 31; ATP 0.6 uM, enzyme 5 nM; read-out: VEGFR IC50
Quick reference for IC50 among some molecules

Example entries begin here.
O=C(Cc1ccccc1)NC(=S)Nc1ccc(Oc2ccnc3cc(-c4ccc(CN5CCNCC5)cc4)sc23)c(F)c1 ... < 50 nM
C#Cc1ccccc1CC(=O)NC(=S)Nc1ccc(Oc2ccnc3cc(-c4nccn4CC)sc23)c(F)c1 ... < 50 nM
CN1CCN(Cc2ccc(-c3cc4nccc(Oc5ccc(NC(=S)NC(=O)Cc6ccccc6)cc5F)c4s3)cc2)CC1 ... < 50 nM
C#Cc1ccccc1CC(=O)NC(=S)Nc1ccc(Oc2ccnc3cc(-c4cn(CC)cn4)sc23)c(F)c1 [drawing 455] ... < 50 nM
C=C(F)c1cccc(CC(=O)NC(=S)Nc2ccc(Oc3ccnc4cc(-c5cn(C)cn5)sc34)c(F)c2)c1 ... 50 to 250 nM

Prompt line: Request body: readout IC50, system VEGF receptor KDR (Homo sapiens, UniProt P35968), query O=C(Cc1ccc(F)cc1)NC(=S)Nc1ccc(Oc2ccnc3cc(-c4cccc[n+]4[O-])sc23)c(F)c1 . Return the value.
Response line: < 50 nM

Prompt line: Request body: readout IC50, system VEGF receptor KDR (Homo sapiens, UniProt P35968), query CN(C)C(=O)c1ccc(-c2cc3nccc(Oc4ccc(NC(=S)NC(=O)Cc5ccc(F)cc5)cc4F)c3s2)cc1 . Return the value.
Response line: < 50 nM

Prompt line: Request body: readout IC50, system VEGF receptor KDR (Homo sapiens, UniProt P35968), query C#Cc1cc(F)ccc1CC(=O)NC(=S)Nc1ccc(Oc2ccnc3cc(C4=CCN(C)CC4)sc23)c(F)c1 . Return the value.
Response line: 50 to 250 nM
